Data credit: paper PMC6478789

Target: BRD2(1,2) (Homo sapiens, UniProt P25440)
Sequence (P25440 71-455 limits assumed): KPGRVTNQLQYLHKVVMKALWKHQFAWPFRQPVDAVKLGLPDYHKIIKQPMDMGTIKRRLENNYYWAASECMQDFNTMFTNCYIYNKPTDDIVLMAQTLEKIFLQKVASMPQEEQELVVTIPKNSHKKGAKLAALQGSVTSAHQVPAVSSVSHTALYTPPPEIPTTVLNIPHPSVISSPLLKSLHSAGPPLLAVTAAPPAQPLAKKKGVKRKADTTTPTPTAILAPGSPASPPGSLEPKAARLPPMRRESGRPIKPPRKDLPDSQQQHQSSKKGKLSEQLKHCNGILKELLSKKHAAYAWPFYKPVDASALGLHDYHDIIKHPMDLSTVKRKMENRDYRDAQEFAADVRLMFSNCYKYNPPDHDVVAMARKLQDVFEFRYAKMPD
Assay: BROMOscan ligand-binding assay
measurementKind: pKd
Numbers only, as −log10 of the molar value.

Record excerpt, results attached:
• CCCS(=O)(=O)c1nc(NC2CC2)cc(-c2ccc3c(ccn3C3CC(C)(C)NC(C)(C)C3)c2)n1 [NVS-CECR2-1] = 4.80
• CCCOc1ccn2c(C(C)=O)cc(-c3ccccc3S(C)(=O)=O)c2c1 [GSK2801] = 4.72
• COc1ccc(CCc2nc3cc(-c4c(C)noc4C)ccc3n2C[C@H](C)N2CCOCC2)cc1Cl [SGC-CBP30] = 6.19
• O=C(O)c1ccccc1O [Salicylic Acid] = 2.14

Then there is this compound:
pKd for CCC(=O)N1CCOc2c(cc(-c3ccc(OC)c(OC)c3)cc2OCC2CCCN(C)C2)C1 (centres unmarked) [I-CBP112] is 5.16

---

Molecular target: SMARCA4 (Homo sapiens, UniProt P51532)
Sequence (P51532 1453-1564 limits assumed): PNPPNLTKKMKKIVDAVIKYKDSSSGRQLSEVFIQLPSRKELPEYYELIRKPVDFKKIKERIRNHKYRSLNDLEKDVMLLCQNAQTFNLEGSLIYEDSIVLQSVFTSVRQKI
Test: BROMOscan ligand-binding assay
Details: BROMOscan, SMARCA4
measurementKind: pKd
Numbers only, as −log10 of the molar value.

# value of pKd, SMARCA4 (Homo sapiens, UniProt P51532), item O=C(C=CN1[C@H]2CC[C@@H]1c1ncnc(NC3CC3)c1C2)c1ccccc1O [PFI-3 D1] = 7.34

---

Target: BRPF1 (Homo sapiens, UniProt P55201)
Sequence (P55201 628-732 limits assumed): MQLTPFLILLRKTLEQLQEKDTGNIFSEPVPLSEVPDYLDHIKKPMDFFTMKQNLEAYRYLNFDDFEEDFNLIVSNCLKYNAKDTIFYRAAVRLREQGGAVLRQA
Assay: BROMOscan ligand-binding assay
Conditions: KD, BROMOscan, BRPF1
measurementKind: Kd (µM)
Give bare numbers, in µM.

Lab note: measured Kd of COc1ccc(CCc2nc3cc(-c4c(C)noc4C)ccc3n2C[C@H](C)N2CCOCC2)cc1Cl [SGC-CBP30] was 2.4

---

Biological target: BRD8(2) (Homo sapiens)
Sequence (Q9H0E9 1099-1207 limits assumed): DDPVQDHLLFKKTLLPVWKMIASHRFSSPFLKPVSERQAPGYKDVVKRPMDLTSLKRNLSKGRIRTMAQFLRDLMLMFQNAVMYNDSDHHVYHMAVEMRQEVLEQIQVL
Test: BROMOscan ligand-binding assay
Conditions: KD, BROMOscan, BRD8(2)
measurementKind: Kd

# Kd of "COc1ccc(CCc2nc3cc(-c4c(C)noc4C)ccc3n2C[C@H](C)N2CCOCC2)cc1Cl" = > 100 µM

---

Target: BRD3(1) (Homo sapiens, UniProt Q15059)
Sequence (Q15059 34-140 limits assumed): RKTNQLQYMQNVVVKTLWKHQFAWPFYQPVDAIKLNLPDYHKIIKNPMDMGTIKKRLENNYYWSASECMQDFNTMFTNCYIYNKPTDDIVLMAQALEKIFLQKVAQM
Assay: BROMOscan ligand-binding assay
measurementKind: Kd

Quick note, Kd for "CCCS(=O)(=O)c1nc(NC2CC2)cc(-c2ccc3c(ccn3C3CC(C)(C)NC(C)(C)C3)c2)n1" landed at > 30 µM

---

Target: WDR9(2) (Homo sapiens, UniProt Q9NSI6)
Sequence (Q9NSI6 1313-1418 limits assumed): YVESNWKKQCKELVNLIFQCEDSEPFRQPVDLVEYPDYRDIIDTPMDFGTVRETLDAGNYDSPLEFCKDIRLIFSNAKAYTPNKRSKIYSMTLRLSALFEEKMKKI
Test: BROMOscan ligand-binding assay
measurementKind: pKd
Numbers only, as −log10 of the molar value.

pKd for "CCCS(=O)(=O)c1nc(NC2CC2)cc(-c2ccc3c(ccn3C3CC(C)(C)NC(C)(C)C3)c2)n1" is 4.52

---

Molecular target: BRDT(1,2) (Homo sapiens, UniProt Q58F21)
Experiment: BROMOscan ligand-binding assay
Details: KD, BROMOscan Gene Symbol BRDT(1,2)
measurementKind: Kd
Please don't drop the unit; write it after the number.

• CCC(=O)N1CCOc2c(cc(-c3ccc(OC)c(OC)c3)cc2OCC2CCCN(C)C2)C1 (centres unmarked) = 9.6 µM

Noted for "CCCOc1ccn2c(C(C)=O)cc(-c3ccccc3S(C)(=O)=O)c2c1" : its Kd reads 52 µM
